Target: lyophilized bovine thrombin standard substance purified from bovine blood (Bos taurus)
Construct: lyophilized bovine thrombin standard substance purified from bovine blood; from tissue; host or cells: bovine blood
Experiment: Test for antithrombin activity (chromogenic substrate S2238)
Assay type: biochemical
Conditions: 0.15 U/ml bovine thrombin, incubation for 15 minutes, substrate S2238 (0.075 μM), absorbance at 405 nm during 4 minutes, room temperature; read-out: IC50
pIC50: −log10 of the molar value. Structures can show the parent of a compound that is named as a salt.
PROPERTY NAME: pIC50

{"COMPOUND": "CC(C)CC(NC(=O)c1ccccc1)C(=O)N1CCC[C@H]1C(=O)NCc1ccc(C(=N)N)cc1 (mixture of isomers) [Example 6, acetate]", "pIC50": 6.81}

A: CC(C)C[C@@H](NC(=O)c1ccccc1)C(=O)N1CCC[C@H]1C(=O)NCc1ccc(C(=N)N)cc1 [Example 22, hydrochloride]
B: CC[C@H](C)[C@H](NC(=O)c1ccccc1)C(=O)N1CCC[C@H]1C(=O)NCc1ccc(C(=N)N)cc1 (mixture of isomers) [Example 12, acetate]
input: Between A and B , which one shows the larger pIC50 value? // respond with label for picked entry
output: A

====

Biological target: lyophilized bovine thrombin standard substance purified from bovine blood (Bos taurus, UniProt P00735)
Construct: lyophilized bovine thrombin standard substance purified from bovine blood; from tissue; host or cells: bovine blood
Experiment: Test for antithrombin activity (chromogenic substrate S2238)
Type: biochemical
Settings: 0.15 U/ml bovine thrombin, incubation for 15 minutes, substrate S2238 (0.075 μM), absorbance at 405 nm during 4 minutes, room temperature; read-out: IC50
pIC50: −log10 of the molar value. Where a name gives a salt, the structure may show the parent alone.
PROPERTY NAME: pIC50

As a guide, the following entries are already answered.
{"COMPOUND": "CC(C)C[C@@H](NS(=O)(=O)c1ccccc1)C(=O)N1CCC[C@H]1C(=O)NCc1ccc(C(=N)NC(=O)OCc2ccccc2)cc1", "pIC50": 7.52}
{"COMPOUND": "CC(C)C[C@@H](NC(=O)Cc1ccccc1)C(=O)N1CCC[C@H]1C(=O)NCc1ccc(C(=N)N)cc1 [Example 23, hydrochloride]", "pIC50": 6.33}

I: CC(C)C[C@@H](NCC(=O)O)C(=O)N1CCC[C@H]1C(=O)NCc1ccc(C(=N)N)cc1 [Example 24, hydrochloride]
II: CC(C)C[C@@H](NS(=O)(=O)c1ccccc1)C(=O)N1CCC[C@H]1C(=O)NCc1ccc(C(=N)N)cc1 [Example 19, hydrochloride]
III: CC(C)C[C@@H](NS(=O)(=O)Cc1ccccc1)C(=O)N1CCC[C@H]1C(=O)NCc1ccc(C(=N)NC(=O)OCc2ccccc2)cc1
input: Task for the reader: rank each entry by its pIC50, from the minimum upward. I'd appreciate it if you listed the labels in the requested order.
output: I, III, II
